# experimentSummary: qHTS RealTime-Glo MT Cell Viability Assay in HepG2 cells - 0 hour (AID 1224889); also: nearly all actives have a fitted effect of over 50% in size
# conditionDescription: RealTime-Glo luminescence; series mostly up to 76.8 µM
Results filed as inconclusive are left out. The source made the active and inactive calls. Calls follow the shape of the dose curve; as a rule, active = well fitted cell-killing curve with a large enough effect in the repeat runs; inconclusive = weak or mixed curves, or effect the other way; inactive = flat fitted curve, though single readings scatter.
metricName: outcome

Use these answered entries as a reference point.
molecule	outcome
CCCOC(=O)NCCCN(C)C	inactive
Cc1ccc(C)c(S(=O)(=O)O)c1	inactive
NC(=O)NC(N)=O	inactive
CN1Cc2c(N)cccc2C(c2ccccc2)C1 (stereo unspecified)	inactive
O=C(Cl)c1ccc(C(=O)Cl)cc1	inactive

input: Can you share its outcome? I mean this molecule: CC(CN1c2ccccc2Sc2ccccc21)N(C)C (stereo unspecified)
output: inactive

input: Please report the recorded outcome for `Cc1ccccc1Cl` .
output: inactive

input: Form field: reported outcome of `Cc1ccncc1`
output: inactive

input: Look up outcome: `O=C(c1ccccc1)c1ccc(O)c(O)c1O`
output: inactive

input: Please give the measured outcome for this molecule: `OC1CCCCC1`
output: inactive

input: Field request: outcome | item: `OCC(CO)(CO)CO`
output: inactive

* * *

# experimentSummary: qHTS assay to identify small molecule agonists of the estrogen receptor alpha (ER-alpha) signaling pathway in the presence of an antagonist - cell viability counter screen (AID 1259386);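 also: cells exposed to compounds for 22 h at 37 °C before the viability read; nearly all actives have a fitted effect of over 30% in size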
# conditionDescription: VM7Luc4E2 viability, CellTiter-Fluor fluorescence, 22 h; series mostly up to 92.4 µM
Inconclusive results are not listed. Active and inactive are the calls of the source. The call rests on the fitted dose curve; in most records, active means well fitted cell-killing curve with a large enough effect in the repeat runs; inconclusive means weak or mixed curves, or effect the other way; inactive means no such curve, though single readings can be large or run the other way.
Valid outcomes are listed here; reply with one: active, inactive

A selection of reference data follows.
compound	groupLabel
O=C(O)C1=NN(c2ccc(S(=O)(=O)O)cc2)C(=O)C1	inactive
c1cnc2c(c1)ccc1cccnc12	active
Oc1ccc(Cc2ccccc2O)cc1	inactive
CCCCCCCCC(=O)O	inactive

input: Assay outcome for `Clc1cccc(Cl)c1NC1=NCCN1` : what was it?
output: inactive

input: Could you please tell me the result logged for `CC(=O)OCCC(C)C` in this assay?
output: inactive

input: In this assay, the call recorded for `COC(=O)/C=C\C(=O)OC` was what?
output: inactive

input: Please indicate how the test categorized `CC(=O)CC(=O)N(C)C` .
output: inactive

input: What did this assay record as the result for `CCCCCCCCCCCC(=O)N(C)CC(=O)O` ?
output: inactive

input: Which outcome did this test record for the compound `NC(N)=S` ?
output: inactive

input: Assay outcome for `CCCCCNCCCCC` : what was it?
output: inactive

input: Please share the test call associated with `CC(=O)OCc1ccc2c(c1)OCO2` .
output: inactive

input: Which result was noted for this compound in the test: `Cc1ccc(C(C)C)cc1`
output: inactive

input: Dear all, I need the recorded test outcome for CC(COCC(C)OC(=O)c1ccccc1)OC(=O)c1ccccc1 (stereo not given) , thank you.
output: inactive

input: Test call, this compound: `OC[C@H]1O[C@@H](Oc2ccc(O)cc2)[C@H](O)[C@@H](O)[C@@H]1O`
output: inactive

* * *

# experimentalTarget: Nuclear receptor subfamily 1 group I member 3 (Homo sapiens)
# experimentSummary: qHTS assay to identify small molecule antagonists of the constitutive androstane receptor (CAR) signaling pathway (AID 1224838);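 also: HepG2 cells stably expressing hCAR with CYP2B6 luciferase reporter stimulated by CITCO; nearly all actives have a fitted effect of over 40% in size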
# conditionDescription: HepG2-CYP2B6-hCAR luciferase, CITCO-stimulated, 24 h; series mostly up to 92.4 µM
Results filed as inconclusive are left out. Calls of active or inactive are those of the source. The call rests on the fitted dose curve; in most records, active means well fitted inhibition curve with a large enough effect in the repeat runs; inconclusive means weak or mixed curves, or effect the other way; inactive means no such curve, though single readings can be large or run the other way.

structureAsSmiles	outcome
CCc1cccc(CC)c1N	inactive
O=C1CCCCCCCCCCC1	inactive
Cc1ccccc1Cl	inactive
